# assayed target: hTG2 (Homo sapiens, UniProt P21980)
# Sequence (P21980 whole entry): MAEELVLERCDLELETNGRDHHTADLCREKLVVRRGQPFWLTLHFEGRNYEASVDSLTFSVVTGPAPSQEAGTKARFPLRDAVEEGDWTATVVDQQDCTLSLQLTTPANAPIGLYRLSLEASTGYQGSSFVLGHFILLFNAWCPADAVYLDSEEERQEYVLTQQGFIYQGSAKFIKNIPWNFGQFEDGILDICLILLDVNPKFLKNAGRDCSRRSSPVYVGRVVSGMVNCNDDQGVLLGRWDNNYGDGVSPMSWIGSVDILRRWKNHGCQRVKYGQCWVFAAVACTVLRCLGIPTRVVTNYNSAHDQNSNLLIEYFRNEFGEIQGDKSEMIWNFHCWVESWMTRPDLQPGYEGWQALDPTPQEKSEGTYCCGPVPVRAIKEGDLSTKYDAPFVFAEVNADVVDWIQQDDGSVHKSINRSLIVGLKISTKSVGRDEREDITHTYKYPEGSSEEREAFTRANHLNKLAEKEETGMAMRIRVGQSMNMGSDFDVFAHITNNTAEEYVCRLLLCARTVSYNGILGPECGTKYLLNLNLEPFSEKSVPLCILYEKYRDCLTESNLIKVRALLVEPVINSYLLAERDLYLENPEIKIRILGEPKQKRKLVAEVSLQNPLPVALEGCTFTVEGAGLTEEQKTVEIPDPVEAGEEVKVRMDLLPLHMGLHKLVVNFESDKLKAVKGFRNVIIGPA
# method: biochemical
# stated conditions: fit to saturation kinetics model; 25° C., pH 6.95, 100 μM AL5; read-out: kinact/KI (converted)
Label Fulfilled when kinact/KI >= 900 M⁻¹ s⁻¹; otherwise Not fulfilled.

Previously resolved entries follow.
>>> df
                           structure_smiles          class
0  C=CC(=O)NCCCC[C@H](NC(=O)C1CCCCC1)C(=O)N1CCN(C(=O)c2cccc3ccccc23)CC1  Not fulfilled
1  C=CC(=O)NCCCC[C@H](NC(=O)c1cccc(F)c1)C(=O)N1CCN(C(=O)c2cccc3ccccc23)CC1  Not fulfilled
2  C=CC(=O)NCCCC[C@H](NC(=O)C(C)C)C(=O)N1CCN(C(=O)c2cccc3ccccc23)CC1      Fulfilled

Confirm if kinact/KI reported for the compound C=CC(=O)NCCCC[C@H](NC(=O)c1cn(C)cn1)C(=O)N1CCN(C(=O)c2cccc3ccccc23)CC1 is 900 M⁻¹ s⁻¹ or above.
Not fulfilled

Is the recorded value of kinact/KI equal to or greater than 900 M⁻¹ s⁻¹ for this compound? C=CC(=O)NCCCC[C@H](NC(=O)Cc1ccc(F)cc1)C(=O)N1CCN(C(=O)c2cccc3ccccc23)CC1
Fulfilled

Hi, just wondering whether C=CC(=O)NCCCC[C@H](NC(=O)Cc1ccccc1C(F)(F)F)C(=O)N1CCN(C(=O)c2cccc3ccccc23)CC1 shows kinact/KI of 900 M⁻¹ s⁻¹ or higher.
Fulfilled

Values were extracted from patent US20240383869A1.
